target: CFTR (Homo sapiens); assay: Membrane Potential Dye, Enteroid Assay A; format: cell-based; settings: Table 9; read-out: Ent. A EC50
Sequence (P13569 with tags, fused parts or gaps DEL508-508): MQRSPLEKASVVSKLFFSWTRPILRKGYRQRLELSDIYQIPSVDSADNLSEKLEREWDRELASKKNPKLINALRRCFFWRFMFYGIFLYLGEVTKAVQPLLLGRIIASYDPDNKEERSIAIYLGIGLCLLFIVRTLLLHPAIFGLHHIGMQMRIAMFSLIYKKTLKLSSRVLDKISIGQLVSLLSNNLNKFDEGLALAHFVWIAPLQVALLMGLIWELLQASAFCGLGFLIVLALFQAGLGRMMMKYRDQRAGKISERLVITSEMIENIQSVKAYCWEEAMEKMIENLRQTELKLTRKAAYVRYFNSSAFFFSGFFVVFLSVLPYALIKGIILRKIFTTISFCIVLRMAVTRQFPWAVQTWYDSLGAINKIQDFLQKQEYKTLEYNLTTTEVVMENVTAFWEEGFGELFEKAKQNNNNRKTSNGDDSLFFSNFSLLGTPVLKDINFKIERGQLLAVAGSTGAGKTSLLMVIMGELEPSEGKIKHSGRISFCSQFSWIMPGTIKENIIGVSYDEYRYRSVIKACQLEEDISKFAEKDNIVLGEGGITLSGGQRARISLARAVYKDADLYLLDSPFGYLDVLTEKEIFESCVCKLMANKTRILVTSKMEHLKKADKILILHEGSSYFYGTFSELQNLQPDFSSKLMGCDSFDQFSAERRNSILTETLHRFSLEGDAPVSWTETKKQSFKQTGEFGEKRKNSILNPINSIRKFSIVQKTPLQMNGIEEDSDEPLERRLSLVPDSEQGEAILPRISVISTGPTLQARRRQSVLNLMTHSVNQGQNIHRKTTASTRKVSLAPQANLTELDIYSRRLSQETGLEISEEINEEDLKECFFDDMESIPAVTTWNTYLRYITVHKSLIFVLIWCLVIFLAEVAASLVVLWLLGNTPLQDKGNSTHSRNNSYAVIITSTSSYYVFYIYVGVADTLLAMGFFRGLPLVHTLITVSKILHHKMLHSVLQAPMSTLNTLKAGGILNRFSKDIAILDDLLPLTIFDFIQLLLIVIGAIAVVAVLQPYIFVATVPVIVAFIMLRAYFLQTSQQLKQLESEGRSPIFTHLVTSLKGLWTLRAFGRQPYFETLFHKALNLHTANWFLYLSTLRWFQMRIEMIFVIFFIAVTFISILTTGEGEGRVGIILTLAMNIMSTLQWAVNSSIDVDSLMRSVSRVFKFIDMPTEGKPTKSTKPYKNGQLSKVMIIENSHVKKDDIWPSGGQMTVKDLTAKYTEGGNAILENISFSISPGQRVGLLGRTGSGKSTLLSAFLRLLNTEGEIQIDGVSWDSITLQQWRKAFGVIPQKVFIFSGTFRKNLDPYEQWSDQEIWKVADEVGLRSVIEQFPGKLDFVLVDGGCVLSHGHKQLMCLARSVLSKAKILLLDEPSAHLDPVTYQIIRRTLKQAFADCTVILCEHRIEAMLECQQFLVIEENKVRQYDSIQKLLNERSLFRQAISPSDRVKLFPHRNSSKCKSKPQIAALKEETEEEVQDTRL
pEC50: −log10 of the molar value.
# pEC50 listing for each entry below

Reference set (2 entries):
MOLECULE	MEASURED ON	pEC50
Cc1cccc(C)c1-c1cc2nc(n1)NS(=O)(=O)c1cccc(c1)C(=O)NCC(c1ccc(C34CC(C3)C4)cc1)O2 (stereo not shown) [Compound 398]	CFTR (Homo sapiens)	> 6.00
Cc1cccc(C)c1-c1cc2nc(n1)NS(=O)(=O)c1cccc(c1)C(=O)N[C@@H]1CN(C(=O)OC(C)(C)C)CC[C@H]1O2	CFTR (Homo sapiens)	> 6.00

Qu. Answer with reported pEC50 of Cc1cccc(C)c1-c1cc2nc(n1)NS(=O)(=O)c1cccc(c1)C(=O)N[C@H](CC(C)C)[C@@H](c1ccc(C(C)(C)C)cc1)O2 (single isomer, unassigned) [Compound 39]
Ans. > 6.00

Qu. Give me measured pEC50, please, for this molecule: `Cc1cccc(C)c1-c1cc2nc(n1)NS(=O)(=O)c1cc(n[nH]1)C(=O)N[C@H](CC(C)C)CO2`
Ans. 4.52 to 5.52

Qu. Tell me pEC50 reported for Cc1cccc(C)c1-c1cc2nc(n1)NS(=O)(=O)c1cccc(c1)C(=O)NC[C@@H](c1ccc(CCC3(C(F)(F)F)CC3)cc1)O2 [Compound 146]
Ans. > 6.00

Qu. Look up and state reported pEC50 for `Cc1cccc(C)c1-c1cc2nc(n1)NS(=O)(=O)c1cccc(c1)C(=O)N[C@@H]1CN(c3ncc(C(F)(F)F)cn3)C[C@H]1O2`
Ans. > 6.00

Qu. Please report the measured pEC50 for `Cc1cccc(C)c1-c1cc2nc(n1)NS(=O)(=O)c1cccc(c1)C(=O)N[C@H](C)[C@@H](c1ccc(C(F)(F)F)cc1)O2`
Ans. > 6.00

Qu. Look up and report measured pEC50 for this entry: `CCC(C)(C)C(=O)N1CC[C@H]2Oc3cc(-c4c(C)cccc4C)nc(n3)NS(=O)(=O)c3cccc(c3)C(=O)N[C@@H]2C1`
Ans. 5.52 to 6.00

Qu. Give the reported pEC50 for this molecule. Cc1cccc(C)c1-c1cc2nc(n1)NS(=O)(=O)c1cccc(c1)C(=O)NCC(c1ccc(C3CCC3)cc1)O2 (stereo not shown) [Compound 12]
Ans. > 6.00

Qu. Return reported pEC50. Input molecule: Cc1cccc(C)c1-c1cc2nc(n1)NS(=O)(=O)c1cccc(c1)C(=O)NC[C@@H](c1ccc(C(C)(C)C(F)(F)F)cc1)O2 [Compound 262]
Ans. > 6.00
